system: UACC-62; experiment: NCI tumour cell line growth inhibition, 48 h
Calls of active or inactive are those of the source. Cut-off read from the data, not from the text of the source: active = GI50 up to about 1.1 µM and inactive = higher.
Provide the reported GI50 of each item.

Challenge: I have this compound here, "COc1ccc(-c2c(C#N)c(NC(=S)NC(=O)c3ccccc3)nc3c2CCCC3)cc1OC" , and I need its recorded GI50.
Response given: 44.5 µM (inactive)

Challenge: What value of measured GI50 is listed for COc1ccccc1/C=C1\CCC(CCN2CCOCC2)C1=O (stereo unspecified) ?
Response given: > 100 µM (inactive)

Challenge: Any idea what its GI50 is? The compound is CCOC(=O)C12C3CCC1C2C(=O)C3 (stereo unspecified)
Response given: > 100 µM (inactive)

Challenge: GI50 for "CN(C)Cc1cc(O)c(O)c(CN(C)C)c1" ?
Response given: 29.5 µM (inactive)

Challenge: Bench note: what GI50 did Cc1ccc([N+](=O)[O-])cc1S(=O)(=O)Nc1ccc(C2=NNC(c3ccccc3)C2)cc1 (stereo unspecified) show?
Response given: 9.33 µM (inactive)

Challenge: Quick one: GI50 for CCC1CC2CN3CCc4c([nH]c5c(-c6c(OC)ccc7c8c([nH]c67)[C@]6(C(=O)OC)CC7CC(CC)C6N(CC8)C7)c(O)ccc45)[C@](C(=O)OC)(C2)C13 (stereo partly specified) ?
Response given: 14.3 µM (inactive)

Challenge: Need GI50, item "COc1ccc(-c2cc(=O)c3ccc(O)cc3o2)c(OC)c1OC"
Response given: 36.2 µM (inactive)

Challenge: Can you look up the measured GI50 of COC(=O)C1=C(C(=O)OC)C2(C3C(SC)=CC(C)(C)CC3S1)N(Cc1ccccc1)CCN2Cc1ccccc1 (stereo unspecified) for me?
Response given: > 100 µM (inactive)

Challenge: What value of GI50 has been recorded for this entry: CCOC(=O)C1C(=S)NC(=O)C1C#N (stereo unspecified)
Response given: > 100 µM (inactive)

Challenge: So what's the measured GI50 for this one? "Cc1cccc(/N=N/c2c(C)nn(C(=O)CC(=O)Nc3ccc(Cl)cc3)c2C)c1"
Response given: > 100 µM (inactive)

Challenge: Would you mind telling me what GI50 value was observed for "O=C1N=C2SC=C(NC(=S)Nc3ccccc3)N2NC12c1ccccc1-c1ccccc12" ?
Response given: > 10 µM (inactive)

----------
system: CAKI-1; assay: NCI tumour cell line growth inhibition, 48 h
Calls of active or inactive are those of the source. Rule as the data show it: active = GI50 up to about 1.1 µM and inactive = higher.
measured_metric: GI50

Challenge: GET /values?readout=GI50&item= "CC[C@@]1(C[C@H]2C[C@@]3(C(=O)OC)c4[nH]c5ccccc5c4CCN3C2=S)COC2(CCCCC2)O1"
Response given: > 100 µM (inactive)

Challenge: Which GI50 is listed for "C/C(CCc1ccccc1)=N\NC(N)=S" ?
Response given: > 100 µM (inactive)

Challenge: State the recorded GI50 for this entry: "CNCCCCN(C)/[N+]([O-])=N\O"
Response given: > 100 µM (inactive)

Challenge: # lookup: GI50 of O=C1NC(=O)C(Cc2ccccc2)(c2cccnc2)N1 (stereo unspecified)
Response given: > 100 µM (inactive)

Challenge: Can you share its GI50? I mean this compound: CN(C)C(CN)CC1=C(CC(CN)N(C)C)CCC1 (stereo unspecified)
Response given: > 100 µM (inactive)

Challenge: Can you share its GI50? I mean this compound: CCOC(=O)C1=CC(C)(C(=O)OCC)Nc2c(nc(OC)n(C)c2=O)N1 (stereo unspecified)
Response given: > 10 µM (inactive)

Challenge: Requested field: GI50. Item: "COc1ccc(C(=O)/C=C/c2ccc3c(c2)OCO3)c(OCc2ccccc2)c1"
Response given: 11.8 µM (inactive)

Challenge: Suppose we examine the compound "NNC(=O)CCC(=O)Nc1cc(Cl)c(Cl)cc1Cl" ; what GI50 value has been reported?
Response given: > 100 µM (inactive)

Challenge: Record request: GI50 value, item "CC1=NN(c2ccccc2)C(=O)/C1=C\c1ccc([N+](=O)[O-])cc1"
Response given: 27.3 µM (inactive)

Challenge: Which GI50 value is on record for "CC(=O)c1c2c(cc3c1CC1(Cc4cc5c(cc4C1)CCC5)C3)CCC2" ?
Response given: > 100 µM (inactive)

Challenge: Give its GI50 value. Item: "O=C1/C(=C/c2ccccc2[N+](=O)[O-])N=C(c2ccccc2)N1c1nc2ccccc2s1"
Response given: 34.1 µM (inactive)

Challenge: Which GI50 value belongs to "COc1c2c(c3c(c1CCC(=O)O)OC(C)(C)C=C3)OC(C)(C)C=C2" ?
Response given: > 100 µM (inactive)

Challenge: Which GI50 is reported for this compound? "CC(=O)Oc1cc2c(cc1OCC(F)(F)F)[C@H]1CC[C@]3(C)[C@@H](OC(C)=O)CC[C@H]3[C@@H]1CC2=O"
Response given: 17.4 µM (inactive)

Challenge: Given "O=C1c2ccccc2-n2c1nc1cc(Cl)ccc1c2=O" , state its recorded GI50.
Response given: 36.8 µM (inactive)

Challenge: # get_value(readout='GI50', item= "CN(C)Cc1cc(O)c(O)c(CN(C)C)c1" )
Response given: 34.4 µM (inactive)

Challenge: May I ask what GI50 has been recorded for "Cc1cc2c(C(C)C)c(O)c(O)c(/C=N/c3cc(C(F)(F)F)ccc3Cl)c2c(O)c1-c1c(C)cc2c(C(C)C)c(O)c(O)c(/C=N/c3cc(C(F)(F)F)ccc3Cl)c2c1O" ?
Response given: 48.3 µM (inactive)

Challenge: For O=c1nc2n(cc1/C=C\Br)C1CC(O)C(CO2)O1 (stereo unspecified) , what is its reported GI50?
Response given: > 100 µM (inactive)

Challenge: Given the entry C/C=C/C1(C)/C(=N\O)C(C)(CCC)C(=O)N1O (stereo unspecified) , report its measured GI50.
Response given: > 100 µM (inactive)

Challenge: Reported GI50 for O=C1CC(c2cccc([N+](=O)[O-])c2)C2(C(=O)NC(=S)NC2=O)C(c2cccc([N+](=O)[O-])c2)C1 (stereo unspecified) : what is it?
Response given: 12.9 µM (inactive)

Challenge: I have this compound here, "CC(=O)CC(N)=O" , and I need its recorded GI50.
Response given: > 100 µM (inactive)

Challenge: Recorded GI50 of "Cc1nc(-c2ccc([N+](=O)[O-])cc2)cn2c1nc1ccccc12" , please.
Response given: > 100 µM (inactive)

----------
tested on: T47D; assay: NCI tumour cell line growth inhibition, 48 h
The source made the active and inactive calls. Rule as the data show it: active = GI50 up to about 1.1 µM and inactive = higher.
Thanks in advance; please answer with one of these: active, inactive

Challenge: # outcome recorded in this test, key = "CN1CCN(Cn2nc(COc3ccc(Cl)cc3)n(/N=C/c3ccc(-c4ccc(Cl)cc4Cl)o3)c2=S)CC1"
Response given: inactive

Challenge: Hey, what did the test say about "Cc1cc2c(C(C)C)c(O)c(O)c(/C=N/c3cc(C(F)(F)F)ccc3Cl)c2c(O)c1-c1c(C)cc2c(C(C)C)c(O)c(O)c(/C=N/c3cc(C(F)(F)F)ccc3Cl)c2c1O" ?
Response given: inactive

Challenge: Give the logged outcome of this assay for the following compound: "Nc1ccccc1CCN1CCN(CCCc2ccccc2)CC1"
Response given: inactive

Challenge: Call for entry NCC(O)CNCC/C=C\C/C=C\C/C=C\C/C=C\C/C=C\C/C=C\CCCCC/C=C\CCNCC(O)CN (stereo not drawn) :
Response given: inactive

Challenge: Given "CN(C)CCNc1ccc2c(=O)n(CCN(C)C)c(=O)n3c4ccc(N)cc4c(=O)c1c23" , state the outcome it received in this test.
Response given: active

Challenge: Record request — test call for "N#Cc1nc(Cc2ccccc2)oc1N"
Response given: inactive

Challenge: Just curious, what result did "CCCCCCCCCCCC[C@@H](O)[C@H]1CC[C@H]([C@H]2CC[C@H]([C@H](O)CC[C@H](O)CCCCCCCC3=C[C@H](C)OC3=O)O2)O1" get here?
Response given: inactive

Challenge: # outcome recorded in this test, key = "C[n+]1ccccc1/C=C/c1ccc2c(c1)OCO2"
Response given: inactive

----------
test system: UO-31; assay: NCI tumour cell line growth inhibition, 48 h
Structures can show the parent of a compound that is named as a salt. The source made the active and inactive calls. No stated cut-off is given here; in the data, active = GI50 up to about 1.1 µM and inactive = higher.
measured_metric: GI50

Challenge: // lookup GI50 | system=UO-31 | key= "Oc1cccc(-c2cc(O)c3cc4c(cc3n2)OCO4)c1"
Response given: 4.23 µM (inactive)

Challenge: Write down the reported GI50 of NCCCNCCCCNCCCN [SPERMINE TETRAHYDROCHLORIDE] , test system: UO-31.
Response given: 2.23 µM (inactive)

Challenge: // map "O=S(O)CCCCCSSCCCCSSCCCCCS(=O)O" to recorded GI50 (system: UO-31)
Response given: 85.3 µM (inactive)

Challenge: Form: Entry = "COc1ccc(N2CCOCC2)cc1" | System = UO-31 | GI50 = ____
Response given: > 100 µM (inactive)

Challenge: Write down the reported GI50 of "Cc1csc2nc(-c3ccc(Cl)c([N+](=O)[O-])c3)c(/C=N/NC(=N)N)n12" , test system: UO-31.
Response given: 1.12 µM (inactive)

Origin of measurements: ChEMBL document CHEMBL1201862
